Value source: PubChem BioAssay (NCI)

# Tested on: NCI-H460 lung
Lab note: assign the record to one of true (1) (active), false (0) (inactive)

Q: Give the logged outcome of this assay for the following compound: `O=C1[C@H](Cc2ccc(O)cc2)N2C(=O)CCN(C(=O)NCc3ccccc3)[C@H]2CN1Cc1cccc2ccccc12`
Result: false (0)

Q: Recorded test call requested for `O=c1c(Oc2ccc(F)cc2F)cc2cnc(NC3CCOCC3)nc2n1C1CC1`
Result: false (0)

Q: What did this assay record as the result for `CC(=O)O[C@H]([C@H](OC(C)=O)[C@H](C)OC(C)=O)[C@@H](/C=C/[C@H]1CC=CC(=O)O1)OC(C)=O` ?
Result: false (0)

Q: Look up the recorded call for `CNCc1cccc2c1OCCOCCOCCNS(=O)(=O)c1ccc(cc1)-c1cnc(N)c(n1)C(=O)N2` in this test.
Result: false (0)

Q: For this compound, state the assay outcome: `CNS(=O)(=O)Nc1nccc(Cc2c(C)c3ccc(Oc4ncccn4)cc3oc2=O)c1F`
Result: false (0)

Q: Call for entry `OC[C@H]1C[C@](O)(c2ccc(F)cc2)[C@@H](c2ccc(F)cc2)O1` :
Result: false (0)

Q: Call for entry `COc1cc2c(Oc3ccc(-c4cnc(Nc5ccc(F)cc5)n(C)c4=O)cc3F)ccnc2cc1OCCCN1CCOCC1` :
Result: false (0)

Q: What call does the record list for CC(C)c1ccc2c(c1)CCC1C2CCCC1(C)NCc1ccccc1 (stereo unspecified) ?
Result: false (0)

---
Q: Record lookup: outcome of this test for `O=C(O)CSc1cc(NS(=O)(=O)c2ccc(Br)cc2)c2ccccc2c1O` ?
Result: false (0)

Q: Assay outcome for `OCc1ccc(N2CCc3ccc(F)cc3C2)cc1Cl` : what was it?
Result: true (1)

Q: What was the test verdict on `CC[C@]12C=CCN3CC[C@@]4(c5ccc(OC)cc5N(C)[C@H]4[C@@](O)(C(=O)OC)[C@@H]1OC(=O)CCCN1CCN(CCCC(=O)O[C@@H]4[C@]5(CC)C=CCN6CC[C@@]7(c8ccc(OC)cc8N(C)[C@H]7[C@@]4(O)C(=O)OC)[C@@H]65)CC1)[C@@H]32` ?
Result: false (0)

---

# Test system: OVCAR-5 ovarian
# protocolText: NCI tumour cell line growth inhibition, 48 h
Readings of TGI for the listed compounds

TGI in this record for `CCOC(=O)c1c(C)n(-c2ccc(C)cc2)c(=O)c2ccccc2c(=O)c2c(=O)ccc(=O)c1=2` : 75.5 µM

The compound listed as `CC(C)(C)OC(=O)/N=C/c1c(O)c2ccccc2oc1=O` shows TGI equal to > 100 µM

Measured TGI, C/C(=C\c1ccccc1)C(O)C(=O)c1nc2ccc(Cl)cc2[nH]c1=O (configuration not stated) : > 100 µM

TGI recorded for this compound, `CC(=O)Oc1ccc(-c2nnc(-c3ccc(OC(C)=O)cc3)nn2)cc1` , is > 100 µM

// sample c1ccc(C(NC2=NCCO2)C2CC2)cc1 (configuration not stated) , its TGI was > 100 µM

***
So for `CC[C@]12C=CCN3CC[C@@]4(c5ccc(OC)cc5N(C)[C@H]4[C@@](O)(C(=O)OC)[C@@H]1OC(=O)CCCN1CCN(CCCC(=O)O[C@@H]4[C@]5(CC)C=CCN6CC[C@@]7(c8ccc(OC)cc8N(C)[C@H]7[C@@]4(O)C(=O)OC)[C@@H]65)CC1)[C@@H]32` , the logged TGI turned out to be 3.47 µM

So, `CN(c1ccccc1)c1c2ccccc2nc2[nH]c3ccccc3c12` ? Its TGI was 39.5 µM

get_value(item= CCOC(OCC)(OCC)C(Br)CC (configuration not stated) , readout=TGI) returns > 100 µM

For record `CC(C)(C)n1c(=O)n2c(-c3ccccc3)c(-c3ccccc3)n2c1=O` the listed TGI is > 100 µM

So for `Oc1c(Br)cc(Cl)cc1C(c1cc(Cl)cc(Br)c1O)C(Cl)(Cl)Cl` , the logged TGI turned out to be 13 µM

---

The entries below come with measured GI50 values attached.
# Test system: OVCAR-5 ovarian
# protocolText: NCI tumour cell line growth inhibition, 48 h

GI50 reading for `COc1cc2c3c(n(CCCN)c(=O)c2cc1OC)-c1ccc(N)cc1C3=O` : 7.87 µM

Entry under test: N#CC1=C(N)Oc2c(ccc3ccccc23)C1c1cc2ccccc2n2nnnc12 (stereo not drawn) . Its GI50 was 2.76 µM

Reported GI50 for `O=C(O)CSc1cc(NS(=O)(=O)c2ccc(Br)cc2)c2ccccc2c1O` was 21.6 µM

---

# Tested on: LOX IMVI melanoma
# protocolText: NCI tumour cell line growth inhibition, 48 h
measuredAttribute: TGI

Here is how some compounds turned out for TGI.
Entry under test: `CN1S(=O)(=O)N(C)P12(N=P(CP(=NP13(N(C)S(=O)(=O)N1C)N(C)S(=O)(=O)N3C)(c1ccccc1)c1ccccc1)(c1ccccc1)c1ccccc1)N(C)S(=O)(=O)N2C` . Its TGI was > 100 µM

The compound identified as `NS(=O)(=O)c1c(O)c2ccccc2oc1=O` registered its TGI at > 100 µM

New cases:
TGI measured on `CC(C)=CCC[C@@H](C)C1=C(N)C(O)=C(C)C(=O)C1=O` = > 75 µM

---

# System: SK-MEL-2 melanoma
# protocolText: NCI tumour cell line growth inhibition, 48 h
measuredAttribute: TGI

The reported value for CC1=C(C(=O)Nc2ccc3[nH]ncc3c2)C(c2ccc(F)cc2)N=C(c2ccc(C(F)(F)F)nc2)N1 (stereo not drawn) in terms of TGI is > 25 µM

Memo: `Cc1ccc2c(=O)cc(-c3cc(C)sc3C)[nH]c2n1` , reported TGI: > 29.6 µM

Continuing:
Summary for this compound, COC(=O)C1=C(O)C(C(=O)OC)[C@@]2(O)[C@@H](C(=O)OC)[C@H](C)C[C@@H]1[C@@H]2C(=O)OC (stereo partly drawn) : TGI is 58.9 µM

---

# Test system: K-562 leukemia
# protocolText: NCI tumour cell line growth inhibition, 48 h
measuredAttribute: TGI (µM)
Numeric answer only, unit µM assumed.

Field TGI (K-562 leukemia), entry CCCCCCCCCCCCOC1C(C(COC2OC(C(O)CO)C3OC(C)(C)OC23)OC(=O)Nc2ccccc2)OC2OC(C)(C)OC21 (stereo not drawn) : 16.9

Shifting focus to the molecule that follows.
`C=C(C)c1nc(Oc2ccccc2)nc(Oc2ccccc2)n1` tested on K-562 leukemia gave TGI: 5.49

---

# Test system: DU-145 prostate
# protocolText: NCI tumour cell line growth inhibition, 48 h
measuredAttribute: TGI

# example entries with known answers
Reported TGI for O=S(=O)(Nc1ccccc1)c1ccc(C2CC3(Cl)C(Cl)=C(Cl)C2(Cl)C3(Cl)Cl)cc1 (stereo not drawn) was 10.1 µM

Quick note, TGI for `NCCCCNOCCCN` landed at > 100 µM

Briefly, TGI measured for `CNCc1cccc2c1OCCOCCOCCNS(=O)(=O)c1ccc(cc1)-c1cnc(N)c(n1)C(=O)N2` : 3.36 µM

***
TGI reported for this compound `Cc1cccc(C)c1NC(=O)C(=O)CC(=O)c1sc(Nc2c(C)cccc2C)nc1C` : > 100 µM

`O=C(NO)c1ccc(CNc2cccc3nc(C4CC4)n(-c4ccccc4)c(=O)c23)cc1` has a reported TGI of 13.7 µM

get_value(item= `CCN(CC)/[N+]([O-])=N/OS(=O)(=O)N(C)C` , readout=TGI) returns > 100 µM

The reported value for `N#C[Se]CCN1C(=O)c2ccccc2C1=O` in terms of TGI is 7.77 µM

Memo: `NS(=O)(=O)c1c(O)c2ccccc2oc1=O` , reported TGI: > 100 µM

The reported value for `O=c1c2sc3ccccc3sc=2c(=O)c2c(Cl)c(Cl)c(Cl)c(Cl)c12` in terms of TGI is > 100 µM

GET /value?item= O=C1NC(c2ccccc2Cl)Nc2ccccc21 (stereo not drawn) &field=TGI returns > 100 µM

Data point: N#CCC(=O)N/N=C\C(O)C(O)C(O)C(O)CO (stereo not drawn) ; TGI = > 100 µM

Reported TGI of COC(=O)/C=C1\C(CO[Si](C)(C)C(C)(C)C)OC(n2ccc(=O)[nH]c2=O)C1O (stereo not drawn) : 32.7 µM

The measured TGI associated with `NCCc1ccc(S(=O)(=O)O)cc1[N+](=O)[O-]` reads > 100 µM

---

# System: MOLT-4 leukemia
# protocolText: NCI tumour cell line growth inhibition, 48 h
measuredAttribute: TGI

Observe how each entry below is paired with its result.
Lab note: measured TGI of `O=c1oc2ccccc2c(-c2ccc(O)cc2)c1Oc1ccccc1` was > 100 µM

What the record says about `O=c1c2ccccc2nc2n1CCc1c-2[nH]c2ccccc12` : TGI is > 100 µM

TGI reading for `C#CCN(C(=O)C(F)(F)F)C(/C=C\C(=O)OC)(C(=O)OCC)C(=O)OCC` : > 100 µM

get_value(item= `O=[N+]([O-])c1ccc(N/N=C\c2cc(Br)ccc2O)nc1` , readout=TGI) returns 23.9 µM

The compound listed as CCCCCCCCCCCCOC1C(C(COC2OC(C(O)CO)C3OC(C)(C)OC23)OC(=O)Nc2ccccc2)OC2OC(C)(C)OC21 (stereo unspecified) has a reported TGI of 5.14 µM

Lab note: measured TGI of `C/C(=C\c1csc(C)n1)[C@@H]1C[C@@H]2O[C@]2(C)CCC[C@H](C)[C@H](O)[C@@H](C)C(=O)C(C)(C)[C@@H](O)CC(=O)N1` was 0.000214 µM

`COc1cc(S(=O)(=O)Nc2nc(-c3ccc(N=Cc4ccccc4O)cc3)cs2)ccc1Cl` yielded TGI of > 100 µM

// `N/C(CCSCCSCC/C(N)=N\O)=N\O` : TGI value = > 100 µM

---
Data point: `COc1cc(Nc2cc(Cl)cc(Cl)c2)nc(N)n1` ; TGI = 51 µM
